Where these numbers come from: ChEMBL document CHEMBL1153047

Biological target: Protein smoothened (Homo sapiens)
Sequence (Q99835 whole entry): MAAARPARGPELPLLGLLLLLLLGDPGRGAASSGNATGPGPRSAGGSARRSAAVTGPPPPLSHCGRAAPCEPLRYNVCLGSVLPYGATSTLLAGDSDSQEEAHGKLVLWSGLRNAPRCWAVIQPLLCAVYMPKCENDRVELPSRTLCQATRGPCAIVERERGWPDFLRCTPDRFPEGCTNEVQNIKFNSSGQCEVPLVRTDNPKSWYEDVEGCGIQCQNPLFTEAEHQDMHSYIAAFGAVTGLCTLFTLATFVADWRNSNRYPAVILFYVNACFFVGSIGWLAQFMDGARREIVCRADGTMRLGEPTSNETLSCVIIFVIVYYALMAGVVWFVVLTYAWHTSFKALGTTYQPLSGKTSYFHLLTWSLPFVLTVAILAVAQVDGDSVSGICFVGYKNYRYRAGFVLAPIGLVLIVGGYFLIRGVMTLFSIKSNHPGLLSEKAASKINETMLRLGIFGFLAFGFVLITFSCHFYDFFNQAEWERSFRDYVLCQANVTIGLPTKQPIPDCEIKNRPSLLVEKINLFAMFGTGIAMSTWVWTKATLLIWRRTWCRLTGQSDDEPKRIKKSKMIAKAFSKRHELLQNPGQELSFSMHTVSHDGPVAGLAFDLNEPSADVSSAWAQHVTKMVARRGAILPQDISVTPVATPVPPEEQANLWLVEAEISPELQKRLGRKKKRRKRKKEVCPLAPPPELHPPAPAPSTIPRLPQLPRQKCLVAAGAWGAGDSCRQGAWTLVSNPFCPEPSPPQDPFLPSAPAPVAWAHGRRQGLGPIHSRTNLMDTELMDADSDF
Assay: Inhibition of BODIPY-cyclopamine to Smo in human HEK293 Flag-Smo cells in presence of 2% FCS
Attribute Measured: IC50

INSERT INTO measurements (mol, experimental_target, result) VALUES
  ('O=C(Cc1ccccc1)NCc1ccc2c(cnn2-c2ccc(F)cc2)c1', 'Protein smoothened (Homo sapiens)', '> 10 µM');
